LC50 (concentration killing 50% of cells): recorded values
- Test system: SNB-19
- procedure_text: Growth inhibition of human SNB19 cells after 48 hrs by sulforhodamine B assay
- Format: functional
- test_conditions: SNB-19, 48 h
measurement_kind: LC50 (concentration killing 50% of cells)

smiles | measured
O=C(Nc1cccc(-n2cc(-c3ccncc3)c(-c3ccc(Cl)c(O)c3)n2)c1)Nc1ccc(Cl)c(Cl)c1 | > 32.5 µM
COc1cc(-c2nn(-c3cccc(NC(=O)Nc4cc(C(F)(F)F)cc(C(F)(F)F)c4)c3)cc2-c2ccncc2)ccc1Cl | > 50 µM
O=C(Nc1cccc(-n2cc(-c3ccncc3)c(-c3ccc(Cl)c(O)c3)n2)c1)Nc1cc(C(F)(F)F)cc(C(F)(F)F)c1 | > 50 µM
COc1cc(-c2nn(-c3cccc(NC(=O)c4ccc(N5CCOCC5)c(C(F)(F)F)c4)c3)cc2-c2ccncc2)ccc1Cl | > 100 µM

---

- Tested on: SR
- procedure_text: Growth inhibition of human SR cells after 48 hrs by sulforhodamine B assay
- Assay type: functional
measurement_kind: GI50 (µM)

smiles | measurement_kind | value_units | measured
COc1cc(-c2nn(-c3cccc(NC(=O)Nc4ccc(Cl)c(Cl)c4)c3)cc2-c2ccncc2)ccc1Cl | GI50 | µM | 0.932
O=C(Nc1cccc(-n2cc(-c3ccncc3)c(-c3ccc(Cl)c(O)c3)n2)c1)Nc1ccc(Cl)c(C(F)(F)F)c1 | GI50 | µM | 0.715
COc1cc(-c2nn(-c3cccc(NC(=O)c4ccc(N5CCOCC5)c(C(F)(F)F)c4)c3)cc2-c2ccncc2)ccc1Cl | GI50 | µM | 0.0369
COc1cc(-c2nn(-c3cccc(NC(=O)c4cccc(C(F)(F)F)c4)c3)cc2-c2ccncc2)ccc1Cl | GI50 | µM | 0.838

---

- Test system: A549
- procedure_text: Growth inhibition of human A549/ATCC cells assessed as cell growth at 10 uM after 48 hrs by sulforhodamine B assay
- Format: functional
- test_conditions: A549, 48 h, read-out: Activity

smiles | growth at 10 µM [%]
COc1cc(-c2nn(-c3cccc(NC(=O)c4ccc(Br)c(C)c4)c3)cc2-c2ccncc2)ccc1Cl | 78.3
O=C(Nc1cccc(-n2cc(-c3ccncc3)c(-c3ccc(Cl)c(O)c3)n2)c1)Nc1ccc(Cl)c(Cl)c1 | 4.51
COc1cc(-c2nn(-c3cccc(NC(=O)Nc4cc(C(F)(F)F)cc(C(F)(F)F)c4)c3)cc2-c2ccncc2)ccc1Cl | -23.8
COc1cc(-c2nn(-c3cccc(NC(=O)Nc4ccc(Cl)c(Cl)c4)c3)cc2-c2ccncc2)ccc1Cl | -5.88

---

growth at 10 µM: recorded values
- procedure_text: Growth inhibition of human NCI-ADR-RES cells assessed as cell growth at 10 uM after 48 hrs by sulforhodamine B assay
- Type: functional
- test_conditions: read-out: Activity

smiles | value_units | growth at 10 µM
O=C(Nc1cccc(-n2cc(-c3ccncc3)c(-c3ccc(Cl)c(O)c3)n2)c1)c1ccc(Cl)c(C(F)(F)F)c1 | % | 104
COc1cc(-c2nn(-c3cccc(NC(=O)Nc4cc(C(F)(F)F)cc(C(F)(F)F)c4)c3)cc2-c2ccncc2)ccc1Cl | % | 1.11
COc1cc(-c2nn(-c3cccc(NC(=O)Nc4ccc(Cl)c(C(F)(F)F)c4)c3)cc2-c2ccncc2)ccc1Cl | % | -0.86
COc1cc(-c2nn(-c3cccc(NC(=O)Nc4ccccc4)c3)cc2-c2ccncc2)ccc1Cl | % | 72.8
COc1cc(-c2nn(-c3cccc(NC(=O)Nc4cccc(C(F)(F)F)c4)c3)cc2-c2ccncc2)ccc1Cl | % | -11.9
COc1cc(-c2nn(-c3cccc(NC(=O)c4ccc(N5CCOCC5)c(C(F)(F)F)c4)c3)cc2-c2ccncc2)ccc1Cl | % | -7.13
O=C(Nc1cccc(-n2cc(-c3ccncc3)c(-c3ccc(Cl)c(O)c3)n2)c1)Nc1cccc(C(F)(F)F)c1 | % | 24.9
O=C(Nc1cccc(-n2cc(-c3ccncc3)c(-c3ccc(Cl)c(O)c3)n2)c1)Nc1ccc(Cl)c(C(F)(F)F)c1 | % | -16.9
O=C(Nc1cccc(-n2cc(-c3ccncc3)c(-c3ccc(Cl)c(O)c3)n2)c1)Nc1ccc(Cl)c(Cl)c1 | % | 20.9
COc1cc(-c2nn(-c3cccc(NC(=O)c4ccc(Br)c(C)c4)c3)cc2-c2ccncc2)ccc1Cl | % | 66.5
